Origin of measurements: patent EP4796551A1

Property: mRNA encapsulation rate %; scope: individual compounds
test: Ribogreen assay, mRNA encapsulation efficiency of LNP; assay type: physicochemical; settings: Table 2; mRNA-LNP formulation phospholipid:CL4F6:Chol:PEG-DMG 10:50:40:1.0, Fluc mRNA
readout label: mRNA encapsulation rate % (%)

INSERT INTO measurements (compound, unit_abbrev, obs_value) VALUES
  ('CCCCCCCC/C=C\CCCCCCCC(=O)OC[C@H](COP(=O)(O)OCCNCCC(=O)OCC(CC)CCCC)OC(=O)CCCCCCC/C=C\CCCCCCCC (stereo partly drawn)', '%', 95.7),
  ('CCCCCCCC/C=C\CCCCCCCC(=O)OC[C@H](COP(=O)(O)OCCNCCC(=O)OCC(C)CCC)OC(=O)CCCCCCC/C=C\CCCCCCCC (stereo partly drawn)', '%', 95.9),
  ('CCCCCCCC/C=C\CCCCCCCC(=O)OC[C@H](COP(=O)(O)OCCNCCC(=O)OCC(CCCC)CCCCCC)OC(=O)CCCCCCC/C=C\CCCCCCCC (stereo partly drawn)', '%', 96.3),
  ('CCCCCCCC/C=C\CCCCCCCC(=O)OC[C@H](COP(=O)(O)OCCNCCC(=O)OCCC(C)CCC=C(C)C)OC(=O)CCCCCCC/C=C\CCCCCCCC (stereo partly drawn)', '%', 95.9),
  ('CCCCCCCC/C=C\CCCCCCCC(=O)OC[C@H](COP(=O)(O)OCCN)OC(=O)CCCCCCC/C=C\CCCCCCCC [DOPE, reference compound]', '%', 92.8),
  ('CCCCCCCC/C=C\CCCCCCCC(=O)OC[C@H](COP(=O)(O)OCCNCCC(=O)OCC(CCC)CCCCC)OC(=O)CCCCCCC/C=C\CCCCCCCC (stereo partly drawn)', '%', 96.0);

====

test: Particle size, PDI and ζ-potential of mRNA-LNP (Zetasizer Nano ZS); assay type: physicochemical; conditions: Table 2; mRNA-LNP formulation phospholipid:CL4F6:Chol:PEG-DMG 10:50:40:1.0, Fluc mRNA
readout label: ζ-average particle size (nm)

INSERT INTO assay_data (molecule, obs_value) VALUES
  ('CCCCCCCC/C=C\CCCCCCCC(=O)OC[C@H](COP(=O)(O)OCCNCCC(=O)OCC(CC)CCCC)OC(=O)CCCCCCC/C=C\CCCCCCCC (stereo partly drawn)', 94),
  ('CCCCCCCC/C=C\CCCCCCCC(=O)OC[C@H](COP(=O)(O)OCCNCCC(=O)OCC(CCCC)CCCCCC)OC(=O)CCCCCCC/C=C\CCCCCCCC (stereo partly drawn)', 112),
  ('CCCCCCCC/C=C\CCCCCCCC(=O)OC[C@H](COP(=O)(O)OCCNCCC(=O)OCC(C)CCC)OC(=O)CCCCCCC/C=C\CCCCCCCC (stereo partly drawn)', 94),
  ('CCCCCCCC/C=C\CCCCCCCC(=O)OC[C@H](COP(=O)(O)OCCN)OC(=O)CCCCCCC/C=C\CCCCCCCC [DOPE, reference compound]', 95),
  ('CCCCCCCC/C=C\CCCCCCCC(=O)OC[C@H](COP(=O)(O)OCCNCCC(=O)OCC(CCC)CCCCC)OC(=O)CCCCCCC/C=C\CCCCCCCC (stereo partly drawn)', 79),
  ('CCCCCCCC/C=C\CCCCCCCC(=O)OC[C@H](COP(=O)(O)OCCNCCC(=O)OCCC(C)CCC=C(C)C)OC(=O)CCCCCCC/C=C\CCCCCCCC (stereo partly drawn)', 85);

====

Property: ζ-potential (mV); scope: individual compounds
Test: Particle size, PDI and ζ-potential of mRNA-LNP (Zetasizer Nano ZS)
Assay type: physicochemical
Conditions: Table 1; mRNA-LNP formulation phospholipid:CL4F6:Chol:PEG-DMG 10:50:40:1.0, Fluc mRNA
Experimental: Ethanol solutions containing each phospholipid, CL4F6, Chol, and PEG2000-dimirystoylglycerol (PEG-DMG) at the molar ratio of 10:50:40:1.0 were prepared at the total lipid concentration of 16 mM. […] The ζ-average particle size, polydispersity index (PDI), and ζ-potential of the LNPs were measured by means of a Zetasizer Nano ZS ZEN3600 instrument (Malvern Instruments). The encapsulation efficiency and total concentration of mRNA were measured by a Ribogreen assay according to a conventional method.
readout label: ζ-potential (mV)

INSERT INTO assay_data (compound, unit_abbrev, obs_value) VALUES
  ('CCCCCCCC/C=C\CCCCCCCC(=O)OC[C@H](COP(=O)(O)OCCNCCC(=O)OCCCC)OC(=O)CCCCCCC/C=C\CCCCCCCC [DOPE-C4]', 'mV', -5.0),
  ('CCCCCCCC/C=C\CCCCCCCC(=O)OC[C@H](COP(=O)(O)OCCNCCC(=O)OCCCCCCCC)OC(=O)CCCCCCC/C=C\CCCCCCCC [DOPE-C8]', 'mV', -5.6),
  ('CCCCCCCC/C=C\CCCCCCCC(=O)OC[C@H](COP(=O)(O)OCCNCCC(=O)OCCCCCCCCCCCC)OC(=O)CCCCCCC/C=C\CCCCCCCC [DOPE-C12]', 'mV', -6.3);

====

test: Particle size, PDI and ζ-potential of mRNA-LNP (Zetasizer Nano ZS); type: physicochemical; details: Table 1; mRNA-LNP formulation phospholipid:CL4F6:Chol:PEG-DMG 10:50:40:1.0, Fluc mRNA
readout label: PDI

INSERT INTO results (compound, readout_label, obs_value) VALUES
  ('CCCCCCCC/C=C\CCCCCCCCOC(=O)CCNCCOP(=O)(O)OC[C@@H](COC(=O)CCCCCCC/C=C\CCCCCCCC)OC(=O)CCCCCCC/C=C\CCCCCCCC', 'PDI', 0.18),
  ('CCCCCCCC/C=C\CCCCCCCC(=O)OC[C@H](COP(=O)(O)OCCNCCC(=O)OCCCCCC)OC(=O)CCCCCCC/C=C\CCCCCCCC', 'PDI', 0.15),
  ('CCCCCCCC/C=C\CCCCCCCC(=O)OC[C@H](COP(=O)(O)OCCNCCC(=O)OCCCC)OC(=O)CCCCCCC/C=C\CCCCCCCC', 'PDI', 0.17),
  ('CCCCCCCC/C=C\CCCCCCCC(=O)OC[C@H](COP(=O)(O)OCCNCCC(=O)OCCCCCCCCCC)OC(=O)CCCCCCC/C=C\CCCCCCCC', 'PDI', 0.18),
  ('CCCCCCCC/C=C\CCCCCCCC(=O)OC[C@H](COP(=O)(O)OCCN)OC(=O)CCCCCCC/C=C\CCCCCCCC [DOPE, reference compound]', 'PDI', 0.25);
